# Experimental target: human EDG-5 (Homo sapiens)
# Sequence (O95136 whole entry): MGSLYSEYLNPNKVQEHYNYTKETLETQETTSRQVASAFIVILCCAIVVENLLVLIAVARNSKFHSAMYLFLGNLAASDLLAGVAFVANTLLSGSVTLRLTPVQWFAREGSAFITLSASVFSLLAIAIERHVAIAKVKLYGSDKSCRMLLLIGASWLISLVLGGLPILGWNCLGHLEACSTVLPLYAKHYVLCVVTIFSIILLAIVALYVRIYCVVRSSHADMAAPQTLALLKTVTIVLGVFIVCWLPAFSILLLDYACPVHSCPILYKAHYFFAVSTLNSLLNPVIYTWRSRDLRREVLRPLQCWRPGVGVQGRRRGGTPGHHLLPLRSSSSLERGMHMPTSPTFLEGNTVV
# Experimental protocol: Evaluation of antagonistic activity for EDG-5 by monitoring the concentration change of intracellular calcium ion
# Experimental context: CHO cells overexpressing human EDG-5 gene, S1P 100 nM stimulation, Fura2, read-out: IC50 value (concentration showing an inhibition rate of 50%)
Measure name: IC50 (nM)
Kindly provide the numeric value in nM only, without the unit symbol.

Task: Using the record for CCN(c1ccccc1)C1CN(C(=O)Nc2cc(C(F)(F)F)cc(C(F)(F)F)c2)C1 , report its IC50.
Result: 950
